Tested on: visna virus
Assay: Inhibition of visna virus in vitro (plaque reduction assay / 96 well plate assay) in SCP cells
Format: cell-based
Conditions: Visna-maedi virus; inhibition of visna virus; read-out: EC₅₀
ENDPOINT: pEC50
Numbers only, as −log10 of the molar value.

Each of the following entries comes with a recorded value; kindly state pEC50 for each.
1. CC(=O)OCCCCCN1C[C@H](OC(C)=O)[C@@H](OC(C)=O)[C@@H]1COC(C)=O
2. CCc1ccc(CN2C[C@H](O)[C@@H](O)[C@@H]2CO)cc1

Output:
1: 4.00; 2: 4.00

* * *

Would you kindly list IC50 for each of these molecules?
Molecular target: Yeast alpha-glucosidase (Saccharomyces cerevisiae)
Construct: purchased Sigma
Sequence (P53341 whole entry): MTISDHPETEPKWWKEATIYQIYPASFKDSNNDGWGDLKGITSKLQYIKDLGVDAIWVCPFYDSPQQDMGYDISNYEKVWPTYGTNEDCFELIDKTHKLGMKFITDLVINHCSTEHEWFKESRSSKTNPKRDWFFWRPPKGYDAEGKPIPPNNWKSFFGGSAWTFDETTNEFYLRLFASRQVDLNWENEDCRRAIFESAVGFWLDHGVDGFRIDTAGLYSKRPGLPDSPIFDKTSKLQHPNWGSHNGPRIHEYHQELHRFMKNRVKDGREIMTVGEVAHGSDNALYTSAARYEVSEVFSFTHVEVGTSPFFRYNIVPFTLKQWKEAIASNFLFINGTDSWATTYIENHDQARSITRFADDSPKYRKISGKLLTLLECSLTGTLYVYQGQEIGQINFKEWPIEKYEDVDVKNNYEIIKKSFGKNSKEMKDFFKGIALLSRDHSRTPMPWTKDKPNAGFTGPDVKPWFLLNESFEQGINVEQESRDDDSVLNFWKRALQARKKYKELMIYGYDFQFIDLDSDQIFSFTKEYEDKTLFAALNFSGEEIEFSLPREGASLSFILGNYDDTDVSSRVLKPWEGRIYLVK
Test: Alpha-glucosidase inhibition assay, pH 7.4 (p-nitrophenol release)
Type: biochemical
Conditions: Table 3; pH 7.4; read-out: α-glucosidase IC₅₀
Answers are plain numbers, in µM.

Here is how some molecules turned out for IC50.
MOLECULE	IC50 [µM]
OC[C@H]1[C@H](O)[C@@H](O)CN1Cc1ccc(Cl)cc1	2.2
OC[C@H]1[C@H](O)[C@@H](O)CN1CCCc1ccccc1	13
CCCCCCN1CC(O)C(O)C1CO (stereo not shown)	35

Input: Item under review: CN1CC(O)C(O)C1CO (stereo not shown) . Reported IC50?
Output: 46

* * *

Test system: Sheep choroid plexus(SCP) cells
Assay: Toxicity of compounds in control wells without virus, graded morphologically 0 to 4
Assay type: cell-based
Conditions: Table 4; 1.0 mM Concn.; 0 to 4 scale
Would you kindly list Toxicity for each of these compounds?
One number for each entry.

COMPOUND	Toxicity
CCC(=O)N1C[C@H](OC(C)=O)[C@@H](OC(C)=O)[C@@H]1COC(C)=O	3
CCCCN1CC(OC(=O)CCC)C(OC(=O)CCC)C1COC(=O)CCC (stereo not shown)	2
CC(=O)OC[C@H]1[C@H](OC(C)=O)[C@@H](OC(C)=O)CN1C(=O)Cc1ccccc1	1
OC[C@H]1[C@H](O)[C@@H](O)CN1Cc1ccc(Cl)cc1	3
CCCC(=O)OC[C@H]1[C@H](OC(=O)CCC)[C@@H](OC(=O)CCC)CN1C(=O)OCc1ccccc1	2
CC(=O)OC[C@H]1[C@H](OC(C)=O)[C@@H](OC(C)=O)CN1C(=O)OCc1ccccc1	0
CCc1ccc(CN2C[C@H](OC(C)=O)[C@@H](OC(C)=O)[C@@H]2COC(C)=O)cc1	4
CCCCCCN1C[C@H](OC(C)=O)[C@@H](OC(C)=O)[C@@H]1COC(C)=O	4
CCCCN1CC(O)C(O)C1CO (stereo not shown)	0

Now look at this entry.
Input: Item under review: OC[C@H]1[C@H](O)[C@@H](O)CN1CCCc1ccccc1 . Reported Toxicity?
Output: 3

* * *

System: almond beta-glucosidase
Assay: Beta-glucosidase inhibition assay, pH 7.4 (p-nitrophenol release)
Assay type: biochemical
Conditions: Table 5; at 1.0 mM; pH 7.4
Would you kindly list β-Glucosidase pH 7.4 % Inhibition for each of these molecules?
Answers are plain numbers, in %.

Here is how some molecules turned out for β-Glucosidase pH 7.4 % Inhibition.
MOLECULE	β-Glucosidase pH 7.4 % Inhibition [%]
OC[C@H]1[C@H](O)[C@@H](O)CN1CCCc1ccccc1	31
OCCN1C[C@H](O)[C@@H](O)[C@@H]1CO	45
CCCCN1CC(O)C(O)C1CO (stereo not drawn)	26
CC(=O)OC[C@H]1[C@H](OC(C)=O)[C@@H](OC(C)=O)CN1C(=O)Cc1ccccc1	6
CC(C)C(=O)OC[C@H]1[C@H](OC(=O)C(C)C)[C@@H](OC(=O)C(C)C)CN1C(=O)OCc1ccccc1	1

Each of the following entries comes with a recorded value; kindly state β-Glucosidase pH 7.4 % Inhibition for each.
1. O=C(OCc1ccccc1)N1C[C@H](O)[C@@H](O)[C@@H]1CO
2. CC(=O)OCCN1C[C@H](OC(C)=O)[C@@H](OC(C)=O)[C@@H]1COC(C)=O
3. OC[C@H]1[C@H](O)[C@@H](O)CN1Cc1ccc(Cl)cc1
4. CC(=O)OC[C@H]1[C@H](OC(C)=O)[C@@H](OC(C)=O)CN1C(=O)OCc1ccccc1

Output:
4
5
26
6
